Data origin: the NTF2 design screens of Basanta et al. (2020)

protease stability score values for the sequences below.
# Assay Text: protease stability score; higher = more stable; yeast display proteolysis, trypsin and chymotrypsin
Respond numerically, and do not add a unit to the figure.

These recorded examples may help you get a feel for the data.
{"Record Sequence": "DDRERESKEAVEFFLHAVDTGDFDRIREMLDPHMRVEIDGQEFHGRERALDLIHKEMFDLGVDRIRIEIHDMELVDGRVEVDVHVDVNGRIIRSEYIMKKIDGRWRIHSIKRR", "protease stability score": 1.98}
{"Record Sequence": "TEDLHQYHEFLEEMIRWLRTGDWEAKHRNADPNVRLDFNGVDFHGMEIVAKIEMELRRRVDHIELEVKRSEIVNGRVHIDQVYHIEYNGRSYEVKSELIVKKVNGKWLIKEERVR", "protease stability score": 0.322}

Then this sequence:
Req: Tell me measured protease stability score for `SEEERMTHEATRDLIETILTGDENILRKLADPNMIINVRQGEKDIRIHGRHDYIRWVKLLGVDHVQVRDIHFQGDKATIHLEVEVNGRSINMIIIMRKVDGRWLITETREHHL` please.
Resp: 1.09

* * *

# Assay Text: protease stability score; higher = more stable; yeast display proteolysis, trypsin and chymotrypsin
Property: protease stability score
Answer field: number only, no words.

{"Record Sequence": "DDRERLTKLMSDDFIFSMLTGDEHFMHELIDPHARFLFNGQVHHGWKTMEFWREHLGIDNIHLQIRISDLEIQGDKATVRIDGEVKQGDKSFRTRFIIKVDKIDGRWVIHELRIIVL", "protease stability score": 1.07}
{"Record Sequence": "DETEKHILKLAEMLVRDWITGNEENIMELLDPHAKIDIHIDGRYLEFHGRELITRELIRHYEEIRIHYHFRESESVGEKASINMDVEVHIGDKIVRSHTEVILDIVNGRVRNIHIRWK", "protease stability score": 2.23}

Req: Provide one value: measured protease stability score of `DEELNEWEEWMRRAMKADETGDEDTVTHMLDPNVKFDIDGVELVGREEFIRFFRELRISFHHFKFDHIRDINGRVRVEGTVHLEIIIGEFRHRDDRRTERIELKINGRWYIHSMKIG`
Resp: 1.18

* * *

# Assay Text: protease stability score; higher = more stable; yeast display proteolysis, trypsin and chymotrypsin
Mark 1 (yes) for reported protease stability score of 1 or greater; mark 0 (no) for anything smaller.

{"Record Sequence": "SEEEKRAEEWVKLMIHAHLTGDFHLLERFADPHTRVDFNGVENIGMEEVSRWIKEWRRRIDHTEIRLHRIRLQGDKVHVKTELILEYDGRTEFIDSRINLIVINGVLKELRVTLH", "Group": "1 (yes)"}
{"Record Sequence": "SEDEKIHREMSKIMLEDLFTGDWKSLRDLVDPNVRIIVDGREFHGREYYSRELIEELLKFKNARFDIEHVELRIYDGRLRTLIHMRVNIDGVEHWVIVEVDFTKIDGRWYVEEIRVEVR", "Group": "1 (yes)"}
{"Record Sequence": "SEHEKHNRDVVRIVLHALLTGDEELFEENADPNVRTEIDVNGKEIQIHGRSKWVEWLRREIERFDHVRIDLKRIDVQGDKLHTDGHLRLKQGDKEITTDVRLHIVVVDGRIDSMEMSVH", "Group": "1 (yes)"}
{"Record Sequence": "DEDEEEAKEFLRIYIEALRTGDEDLWKEMADPNMRLIVGDKERHGRESYTHWERELGYRLEHIHIDHVTFQGDKVDVETTLRIHINGQTHDVEIHLIVTKIDGRWHMKEIIIK", "Group": "1 (yes)"}

Req: Assess whether reported protease stability score for `DEEEERMDRAYDHWRENILTGDWKRLRELADPHAKMDINGVDIHGMETFNKILSEELKEIRLKDVHIDDKHVVDGQLHVHGKRETLFNGKNTWIKTHIHLVIIDGRFHSYTVHIE` sits at 1 or higher.
Resp: 0 (no)

* * *

The entries below are paired with their reported protease stability score.
# Assay Text: protease stability score; higher = more stable; yeast display proteolysis, trypsin and chymotrypsin;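 note: relative to predicted unfolded state with 0 unfolded-like and 1 meaning tenfold more protease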
The answer should be a number; do not append a unit.

{"Record Sequence": "DEVQRDAEEFWRLLVEALVTGDEDLWRKLADPHMRLDVNGVEIHGMEHYLKRIIEEMRRLGVELKDFRLHDVDIQGNKMHLKTHIDGRVNGQKNTRREEYVITKIDGRWQLESIKVH", "protease stability score": 2.04}
{"Record Sequence": "SEEHEDAHEMFELWSILLITGDERILHQLMDPDAKTTIDGQEFHGREKLIEVFREFLKRIDHIHEVEVTRMTFFDGRLHINLRVHVTINGVHRQFRVIIIIVKIDGRWVIQSQEIV", "protease stability score": 1.63}

Switching to the query record.
Req: Look up protease stability score of `DEEERRTREFTEHVLHAEETGDFDSFVELADPNVRMRIGDKEIHGMEMVAKWLVHMRIKHFNLHRIEIQGEKVHIDGEIKGRFNGRDTETKVIFHIVVIDGRLHSQIIQIH` and report it.
Resp: 1.54

* * *

# Assay Text: protease stability score; higher = more stable; yeast display proteolysis, trypsin and chymotrypsin;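 note: relative to predicted unfolded state with 0 unfolded-like and 1 meaning tenfold more protease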
Catalogue of sequences with associated protease stability score
Format: numeric value only, no unit, no commentary.

Observe how each entry below is paired with its result.
{"Record Sequence": "DEDRKHREHLSELFQKLWLTGDWRTLWRLLDPHVRLEVLIDGKRIEKIGRENISEMLHRFLEFLGVDHRELHDMEIQGDKVHLDERIHYNGREQKLHIEFKFINGRMHEIKIRYE", "protease stability score": 1.58}
{"Record Sequence": "SEDEEMSHNIAKMWVDALMTGDEEVLHNLADPRVRLDINGVIVHGREEFTKTMEDKLRHMRIHHINIRDIDIQGDYVRVDVRSDIFVDGKRHHVTTTLIIFKVNGRWLLHEIVVR", "protease stability score": 1.95}

Req: Specify reported protease stability score for the sequence shown: `SEEEVLAHKFLRTWVESMNTGDEKSIMRLFDPNVRYHVGDKEIHGMDEHREEFTELLHRVKNVRFFFDEHDMRNIDGRIEMKGRLEIIQGEYHESTTVELIITKVNGQWVWESVFIK`
Resp: 0.488

* * *

# Assay Text: protease stability score; higher = more stable; yeast display proteolysis, trypsin and chymotrypsin;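 note: relative to predicted unfolded state with 0 unfolded-like and 1 meaning tenfold more protease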
Listing: protease stability score of selected sequences
Answer field: number only, no words.

Some entries whose results are on file:
{"Record Sequence": "SEIEEEAKHVSELMVRWMETGDEKEIYKFADPHVRLEYNGREFHGRESILKHRREIIEKWGVTNIRVSPETFDVINGVVHVELILKVNGRNVIVHILIRKIDGRWRIDSESFI", "Property": "protease stability score", "Value": 1.5}
{"Record Sequence": "SEDEKIMEEASRLFMHLFLTGDEETLMRLADPNTRIVFNGQDHHGREEWTKVLRDLGIKHSHIEHVNLRTQGDKVDLNVHVNVHIDGRTRRYLIIVHATKINGRWEIKEIQVHEH", "Property": "protease stability score", "Value": 0.989}
{"Record Sequence": "DEDEQAFRHIMELKIHNINTGDEESLRRLMDPHVRIIIGDKQFHGMEFATEVFRRLGIKYIEDFKIDDLRIQGDKLDAHVTVRGNFNGVHTFHKMRLILRKYDGRWYIEHEEIK", "Property": "protease stability score", "Value": 2.14}
{"Record Sequence": "SEDEEMAKESVEHVIHALETGDFELFHKMADPSVQLDIDGREFIGWEEVRKHLEELRIERVHIRRLHIELINGQVRSTSDIEMDIRIGDYKIRTEVKVHIIIDKVNGRWRLRSMKIINH", "Property": "protease stability score", "Value": 1.57}

Switching to the query record.
Req: For the sequence `SESLEFATKLLEILTHLMYTGDEEDLRHLLDPHVRILFNGKYFHGMEFLMEIYKHWRIQEVRVRFRDVRDVDGRIFVRGEEENVGTINGKRDIVWSHITLIAEKVDGRWVVKEIRIE` , give its measured protease stability score value.
Resp: 1.88

* * *

# Assay Text: protease stability score; higher = more stable; yeast display proteolysis, trypsin and chymotrypsin;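 note: relative to predicted unfolded state with 0 unfolded-like and 1 meaning tenfold more protease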
In this section we review reported protease stability score values for a set of sequences.
Hey, just send me the number, nothing else.

{"Record Sequence": "SEDEKNSRKFLEDWIRALETGDEHRLEELLDPHVLVIVDGVHYWGMEIFLKERRRHGFKLKDVRLEHMTIQGDKVILHVQIEVHINGRDHHLESYIIIEKVNGRWHVSKLELR", "protease stability score": 2.71}

Req: Look up and state reported protease stability score for `DEEHKEVREHIETSIQALRTGDWELLSKRMDPHVRVIVGDKHLHGREEAHKMLEEWFKRMGIDHFHIKSIEIQGDKTDVEGHMYFNGVSRDTRLYEVWVNGRLKSLTIEMR`
Resp: 0.626

Req: Return protease stability score for the following sequence: `SEDDDSAREILRILTEAWYTGNEDELIRLMDPNARSLFDGVEFHGRELVRLWKERVDHTHSIKVKLHSMRIIGNKLEVDGRLEQEGEINGRRFLIVVEVHLIILKVNGRWRMHSVEVR`
Resp: 1.68

Req: Consider the sequence `DEEERELKHFLKEFNRAWRTGDEDEIRHLLDPHVRILFNGVHVIGMEEIEKFWRHLRVRVTRITVHRVDLQGDKLRVDTEQDLVFLIGDFENKHTHHTVIFILKINGRWIIESIVIV` and give its recorded protease stability score.
Resp: 1.45

Req: Please give measured protease stability score of the following entry: `DELEHDAREYFRILEESIRTGDEDLFRKLADPNVRLMIDGKNWIGWESYHEELRQYDHRHVDMRIDHIEVVDGRVHIDGRIEVTITIDGVEHRLNHKLRVEIEKIDGRWHMKFILVE`
Resp: 1.67
